System: RPMI-8226 leukemia
Assay: NCI-60 one-dose screen, 48 h
Details: 10 µM unless noted
About 83,000 compounds went through this panel and 20% of them were active in at least one assay; those are over-represented in the sample as a whole. Calls of active or inactive are those of the source. How the source made its calls: active means growth percent below 10; inactive means the rest.
Response enum: active, inactive

Would you please look over these solved cases?
# Molecule, Qualitative label
measured = [
    ("O=C(c1c[nH]c(=O)c(-c2ccccc2)c1)c1ccccc1O", "inactive"),
    ("Cc1ccc(S(=O)(=O)NCCNc2nccc(-c3c(-c4ccc(O)cc4)nc4sccn34)n2)cc1", "inactive"),
    ("O=C(Nc1cccc(-n2cc(-c3ccncc3)c(-c3ccc(Cl)c(O)c3)n2)c1)Nc1ccc(Cl)c(Cl)c1", "active"),
    ("C=C1CCC[C@]2(C)CCC[C@H](C)[C@@H](OC(C)=O)[C@@H]3OC(=O)C(=C)[C@@H]3C[C@H]1O2", "inactive"),
    ("O=c1c2sc3ncccc3c2nnn1-c1ccccc1", "inactive"),
    ("Cc1nn(-c2ccc(Cl)cc2)c2ncnc(N/N=C/c3cccc([N+](=O)[O-])c3)c12", "inactive"),
    ("CC(C)(C)c1[nH]nc2c1C(c1cc3ccccc3[nH]c1=O)Nc1cc(C(=O)Nc3ccc(Cl)cc3)ccc1N2 (stereo unspecified)", "inactive"),
    ("CC(C)NCCCNC1=C(Cl)C(=O)c2ccccc2C1=O", "inactive"),
    ("N=c1ccc2nc3ccc(N)cc3sc-2c1", "inactive"),
    ("N/C(=N\\S(=O)(=O)c1ccccc1)Nc1nc2ccccc2s1", "inactive"),
]

input: Dear colleague, could you share the recorded outcome for `Cc1cc(C(C)(C)C)ccc1S` when you have a moment?
output: inactive

input: Dear colleague, could you share the recorded outcome for `COc1ccc(CCNC2=CC(=O)CCC2)cc1OC` when you have a moment?
output: inactive

input: Dear colleague, could you share the recorded outcome for `Nc1cccc(Cl)c1N` when you have a moment?
output: inactive
